# reported protein stability index; entries follow
B1: SCNN1D (parent)
chain: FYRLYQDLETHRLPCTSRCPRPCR

Variants of: B1
Assay: protein stability index of a GFP-peptide fusion (GPS, HEK-293T) (PSI 1-6); higher = more stable;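 note: lentivirally expressed fusions sorted by FACS into six bins by GFP to DsRed ratio, PSI derived from sequencing read proportions per bin multiplied by bin number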
Settings: c terminus: a fixed tail appended
Experimental Readout: protein stability index

| Mutation Descriptor | Reported Measurement |
| --- | --- |
| D7I | 3.21 |
| Q6V | 1.65 |
| R12G | 2.47 |
| R24A | 2.2 |
| E9I | 2.06 |
| Q6I | 2.31 |
| S17K | 1.96 |
| R3S | 2.42 |
| R3E | 2.63 |
| R21L | 2.21 |
| R24L | 1.6 |
| Q6R | 1.96 |
| E9N | 1.6 |
| D7Y | 1.66 |
| P22Q | 2.5 |
| L8Q | 2.11 |
| R24D | 1.6 |
| P20K | 2.57 |
| L8C | 2.08 |
| P14G | 2.3 |
| C23M | 2.41 |
| E9L | 2.8 |
| P22C | 3.11 |
| L8P | 2.75 |
| D7V | 1.98 |
| Q6Y | 1.52 |
| T16M | 2.1 |
| T16F | 1.58 |
| D7E | 2.3 |
| R24S | 2.13 |
| Q6N | 2.28 |
| C23I | 2.11 |
| T10E | 2.31 |
| C19G | 2.32 |
| P22M | 1.5 |
| H11L | 1.95 |
| C15R | 2.3 |
| L13N | 2.23 |
| Y2C | 1.55 |
| R24Q | 2.57 |
